IC50 overview
ASSAYED_TARGET: Wee1 (Homo sapiens)
Sequence (P30291 whole entry, species assumed): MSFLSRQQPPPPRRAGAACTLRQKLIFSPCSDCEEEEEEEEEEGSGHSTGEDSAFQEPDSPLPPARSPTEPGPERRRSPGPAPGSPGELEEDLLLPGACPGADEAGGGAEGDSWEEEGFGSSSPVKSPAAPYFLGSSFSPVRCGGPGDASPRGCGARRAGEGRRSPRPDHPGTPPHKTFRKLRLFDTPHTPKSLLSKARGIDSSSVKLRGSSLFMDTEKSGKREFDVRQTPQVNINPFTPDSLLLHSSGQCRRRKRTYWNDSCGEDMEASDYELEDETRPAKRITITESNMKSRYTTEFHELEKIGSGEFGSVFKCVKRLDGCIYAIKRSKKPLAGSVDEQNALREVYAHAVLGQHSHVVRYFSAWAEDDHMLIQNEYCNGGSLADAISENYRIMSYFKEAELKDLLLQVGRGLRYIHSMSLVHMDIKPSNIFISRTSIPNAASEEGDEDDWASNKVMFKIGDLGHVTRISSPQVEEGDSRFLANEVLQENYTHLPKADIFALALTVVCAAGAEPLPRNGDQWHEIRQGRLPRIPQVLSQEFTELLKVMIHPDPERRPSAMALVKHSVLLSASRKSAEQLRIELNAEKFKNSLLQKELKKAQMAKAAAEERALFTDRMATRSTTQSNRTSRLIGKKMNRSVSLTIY
ASSAY_NOTES: Wee1 pCDK1 activity (known assay)
METRIC_NAME: IC50

> print(dat)
                                   compound       assayed.target  metric.name  reported.measurement
1  CCC1(O)CCc2ccc(Nc3nc(Nc4ccc5c(c4)CCNC5(C)C)ncc3C#N)nc21 (stereo not shown)  Wee1 (Homo sapiens)         IC50        500 to 1000 nM
2  CCC1(O)CCc2ccc(Nc3nc(Nc4ccc5c(c4)CN(C)CC5)ncc3C#N)nc21 (stereo not shown)  Wee1 (Homo sapiens)         IC50         250 to 500 nM
3  CCC1(O)CCc2ccc(Nc3nc(Nc4ccc5c(c4)CCN(C)C5(C)C)ncc3C#N)nc21 (single isomer, unassigned) [Example 27]  Wee1 (Homo sapiens)         IC50              ≤ 100 nM
4  CCC1(O)CCc2ccc(Nc3nc(Nc4ccc(N5CCN(C)C6(CC6)C5)cc4)ncc3C#N)nc21 (stereo not shown)  Wee1 (Homo sapiens)         IC50             > 1000 nM
5  C[C@H]1CN(C)CCN1c1ccc(Nc2ncc(C#N)c(Nc3cccc(N4CCCC4=O)n3)n2)cc1  Wee1 (Homo sapiens)         IC50         100 to 250 nM
6  CN1CCc2cc(Nc3ncc(C#N)c(Nc4cccc(N5CCCC5=O)n4)n3)cc(Cl)c2C1  Wee1 (Homo sapiens)         IC50        500 to 1000 nM
7  CCC1(O)CCc2ccc(Nc3nc(Nc4ccc(N5CC6CN(C)CC6C5)cc4)ncc3C#N)nc21 (stereo not shown)  Wee1 (Homo sapiens)         IC50         100 to 250 nM

====

ASSAYED_TARGET: UniProtKB P53350
Sequence (P53350 whole entry, species assumed): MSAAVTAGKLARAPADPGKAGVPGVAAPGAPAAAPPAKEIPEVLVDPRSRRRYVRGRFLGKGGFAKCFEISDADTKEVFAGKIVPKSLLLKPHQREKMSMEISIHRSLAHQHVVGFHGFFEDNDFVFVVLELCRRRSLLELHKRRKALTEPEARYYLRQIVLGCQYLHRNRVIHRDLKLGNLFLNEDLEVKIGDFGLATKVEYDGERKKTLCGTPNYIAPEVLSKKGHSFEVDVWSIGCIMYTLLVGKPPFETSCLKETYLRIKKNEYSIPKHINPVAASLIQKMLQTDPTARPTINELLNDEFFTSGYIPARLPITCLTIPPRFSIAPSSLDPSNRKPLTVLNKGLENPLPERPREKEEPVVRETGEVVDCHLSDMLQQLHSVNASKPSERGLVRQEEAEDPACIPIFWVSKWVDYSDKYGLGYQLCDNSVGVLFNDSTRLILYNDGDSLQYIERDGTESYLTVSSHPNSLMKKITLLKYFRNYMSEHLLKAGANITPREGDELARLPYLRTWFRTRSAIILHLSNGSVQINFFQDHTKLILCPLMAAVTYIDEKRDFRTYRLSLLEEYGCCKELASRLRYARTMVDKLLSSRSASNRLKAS
IC50 overview
METRIC_NAME: IC50

> print(dat)
                                   compound  reported.measurement
1  CCC1(O)CCc2ccc(Nc3nc(Nc4ccc5c(c4)CNCC5(C)C)ncc3C#N)nc21 (centres unmarked) [Example 30]             > 1000 nM
2  CCC1(O)CCc2ccc(Nc3nc(Nc4ccc5c(c4)CN(C)CC54CC4)ncc3C#N)nc21 (centres unmarked) [Example 56]         100 to 250 nM
3  CCC1(O)CCc2ccc(Nc3nc(Nc4ccc(N5CCN(C)CC5)nc4)ncc3C#N)nc21 (centres unmarked) [Example 14]              ≤ 100 nM
4  CCC1(O)CCc2ccc(Nc3nc(Nc4ccc(N5CCN(C)C6(CC6)C5)cc4)ncc3C#N)nc21 (centres unmarked) [Example 33]              ≤ 100 nM
5  C[C@@H]1CN(C)CCN1c1ccc(Nc2ncc(C#N)c(Nc3cccc(N4CCOC4=O)n3)n2)cc1 (racemic) [Example 10]             > 1000 nM
6  CCC1(O)CCc2ccc(Nc3nc(Nc4ccc(N5CCNCC5)c(C)c4)ncc3C#N)nc21 (centres unmarked) [Example 17]              ≤ 100 nM
7  CCC1(O)CCc2ccc(Nc3nc(Nc4ccc5c(c4)CN(C)CC5)ncc3C#N)nc21 (centres unmarked) [Example 29]         100 to 250 nM
8  CCC1(O)CCc2ccc(Nc3nc(Nc4ccc(C5CCN(CCO)CC5)c(C)c4)ncc3C#N)nc21 (centres unmarked) [Example 19]              ≤ 100 nM
